The measurements presented in this section are drawn from ChEMBL document CHEMBL4513216.

The following molecules are shown together with reported INHIBITION values.
Tested on: Plasmodium berghei
Assay: Screen against P. berghei liver stage (PbLuc), transformed with Luciferase, at 10uM
Type: functional, HepG2
Settings: tested at 10 uM
In all, about 69,000 compounds went through this assay and about 8,600 (12%) showed an effect of 50% or more. Shown is part of a subset that was picked to be rich in strong results.
API: value field is a number in %; no unit string.

[Q] Please give the documented INHIBITION of CCn1cc(NC(=O)NCC(C)N2CCCC2)cn1 (centres undefined)
[A] 31.8

[Q] Please indicate INHIBITION recorded for O=C(NCCN1CCOC1=O)c1cc(-c2ccccc2)on1
[A] 30.2

[Q] Consider the molecule O=C1NC(c2ccccc2)=N[C@@]12CC[C@@H]1CN(Cc3ccccc3)C[C@@H]12 . State its measured INHIBITION.
[A] -21.3

[Q] State its INHIBITION: O=C(c1ccncc1F)N1C[C@@H]2CC[C@H]1CN(Cc1cccnc1)C2
[A] 22.7
